Attribution: paper doi:10.1101/2022.01.05.475007v1

Biological target: Sirt3 (hSirt3 118-399) (Homo sapiens)
Sequence (Q9NTG7 118-399): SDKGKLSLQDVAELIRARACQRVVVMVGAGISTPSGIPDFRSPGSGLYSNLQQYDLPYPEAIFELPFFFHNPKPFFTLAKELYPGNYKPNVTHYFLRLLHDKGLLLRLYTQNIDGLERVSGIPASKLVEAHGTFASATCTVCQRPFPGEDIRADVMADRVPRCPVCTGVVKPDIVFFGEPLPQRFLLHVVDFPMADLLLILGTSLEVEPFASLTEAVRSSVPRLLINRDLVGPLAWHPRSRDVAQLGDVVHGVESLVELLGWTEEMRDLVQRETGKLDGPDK
Test: fluorescence deacetylation assay
Assay type: biochemical
Conditions: read-out: % control at 10 μM
readout.name: remaining activity at 10 µM (%)
Numbers only, in %.

Here is how some molecules turned out for remaining activity at 10 µM.
molecule	system.under.test	unit.string	remaining activity at 10 µM
C=C(CC)C(=O)c1ccc(OCC(=O)N[C@H](Cc2ccc(Cl)cc2)C(=O)NCCCC)c(Cl)c1Cl	Sirt3 (hSirt3 118-399) (Homo sapiens)	%	83.1
CCCCNC(=O)[C@@H](Cc1ccc(Cl)cc1)NC(=O)CSC(=S)c1ccccc1	Sirt3 (hSirt3 118-399) (Homo sapiens)	%	76.5

// each molecule listed below needs its remaining activity at 10 µM
1. CCCCNC(=O)COc1ccc2c(c1)CCc1ccccc1C2NC(=O)CSC(=S)c1ccccc1 (stereo not shown)
2. C=C(CC)C(=O)c1ccc(OCC(=O)NC2c3ccccc3CCc3cc(OCC(=O)NCCCC)ccc32)c(Cl)c1Cl (stereo not shown)

Result:
1. 72.4
2. 75.7
